target-or-test-system: DNA polymerase catalytic subunit (Herpes simplex virus (type 1 / strain 17)) (UniProt P04293)
Sequence (P04293 whole entry): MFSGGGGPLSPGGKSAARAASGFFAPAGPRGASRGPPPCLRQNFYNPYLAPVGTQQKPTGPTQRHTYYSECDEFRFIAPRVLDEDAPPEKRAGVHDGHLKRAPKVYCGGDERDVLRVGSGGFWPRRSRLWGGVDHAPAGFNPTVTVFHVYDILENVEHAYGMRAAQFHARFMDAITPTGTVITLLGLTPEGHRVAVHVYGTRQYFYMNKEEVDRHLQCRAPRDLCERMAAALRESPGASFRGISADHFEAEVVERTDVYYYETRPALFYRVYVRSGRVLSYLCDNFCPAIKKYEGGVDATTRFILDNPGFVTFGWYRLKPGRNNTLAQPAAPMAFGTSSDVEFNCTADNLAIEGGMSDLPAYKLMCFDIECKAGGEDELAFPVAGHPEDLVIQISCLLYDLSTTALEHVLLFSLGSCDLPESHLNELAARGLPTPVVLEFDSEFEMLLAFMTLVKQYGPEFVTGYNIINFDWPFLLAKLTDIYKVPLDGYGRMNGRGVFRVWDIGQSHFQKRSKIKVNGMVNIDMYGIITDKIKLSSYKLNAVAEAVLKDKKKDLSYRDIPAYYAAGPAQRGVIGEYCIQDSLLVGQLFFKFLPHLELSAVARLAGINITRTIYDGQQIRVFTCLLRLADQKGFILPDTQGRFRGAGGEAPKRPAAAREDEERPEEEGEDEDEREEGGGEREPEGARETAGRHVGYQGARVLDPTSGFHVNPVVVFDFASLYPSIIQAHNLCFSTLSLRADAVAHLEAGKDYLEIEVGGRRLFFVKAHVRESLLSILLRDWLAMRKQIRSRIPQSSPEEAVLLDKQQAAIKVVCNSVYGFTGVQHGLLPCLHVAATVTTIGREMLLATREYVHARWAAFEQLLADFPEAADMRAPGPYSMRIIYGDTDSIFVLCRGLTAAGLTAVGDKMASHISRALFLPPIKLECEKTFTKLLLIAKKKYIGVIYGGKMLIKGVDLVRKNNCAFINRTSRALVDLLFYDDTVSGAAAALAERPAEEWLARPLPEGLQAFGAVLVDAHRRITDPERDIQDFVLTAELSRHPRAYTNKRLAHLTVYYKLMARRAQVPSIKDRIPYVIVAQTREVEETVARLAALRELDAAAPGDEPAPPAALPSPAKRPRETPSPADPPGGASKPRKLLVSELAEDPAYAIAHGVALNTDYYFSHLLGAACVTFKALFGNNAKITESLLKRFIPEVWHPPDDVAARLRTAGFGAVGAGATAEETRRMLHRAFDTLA
experiment: Percentage of triphosphates (TP) in the second step of staggered assay mixture from step 1 was incubated with GMP kinase and crude extract of HSV-1 infected HeLa cells over night; note: test concentration or dose not given here
Assay type: functional, cell-based
cond: Homo sapiens
// reported TP for each item listed

smiles-string	TP
Nc1ncnc2c1ncn2C/C=C\CO	0%
Nc1ncnc2c1ncn2C[C@H]1C[C@H]1CO	0%
Nc1nc2c(ncn2COCCO)c(=O)[nH]1	60%
Nc1nc(O)c2ncn(C[C@H]3CC3(CO)CO)c2n1	0%

---

target-or-test-system: DNA polymerase catalytic subunit (Herpes simplex virus (type 1 / strain 17))
experiment: Percentage of diphosphates (DP) in the second step of staggered assay mixture from step 1 was incubated with GMP kinase and crude extract of HSV-1 infected HeLa cells over night; note: test concentration or dose not given here
Type: functional, cell-based
// reported DP for each item listed

smiles-string	unit-text	DP
Nc1nc(O)c2ncn(CC=C(CO)CO)c2n1	%	9
Nc1nc(O)c(N=O)c(NC[C@H]2C[C@@H]2CO)n1	%	0
Nc1ncnc2c1ncn2C[C@H]1C[C@H]1CO	%	0
